# credit: the supplement of paper PMC12042874

Field: amyloid nucleation score. Provide a value for each of the substances that follow.
- TEST DETAILS: amyloid nucleation score (Sup35N fusion, yeast selection) (log enrichment); library NNK1; higher = more nucleation; inactive = no reads after selection;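 note: zero at mode of non-aggregating sequences after 7 days selection at 30°C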
# print the numeric value only

## Task Suppose we examine the substance `LIFMMDEVMYNGVSCFVRRE` ; what amyloid nucleation score value has been reported?
## Result 0.136

## Task Suppose we examine the substance `MVDSVMD` ; what amyloid nucleation score value has been reported?
## Result -0.21

## Task Suppose we examine the substance `CDRVGSKEQSFDKWPLWFAP` ; what amyloid nucleation score value has been reported?
## Result -1.18

## Task Suppose we examine the substance `YQVCTFSNNGIWLWRLSIPH` ; what amyloid nucleation score value has been reported?
## Result 1.81

## Task Suppose we examine the substance `SFLKVGFL` ; what amyloid nucleation score value has been reported?
## Result -0.399

## Task Suppose we examine the substance `YHPRTSYFCDVVFRGPERGN` ; what amyloid nucleation score value has been reported?
## Result 1.87

## Task Suppose we examine the substance `IYFGSCSRLWPHHVNT` ; what amyloid nucleation score value has been reported?
## Result 0.436

## Task Suppose we examine the substance `DRLVDTNYRASGYPVRYMVS` ; what amyloid nucleation score value has been reported?
## Result -1.31

## Task Suppose we examine the substance `SFVFAVWFW` ; what amyloid nucleation score value has been reported?
## Result 0.181

----------
- TEST DETAILS: amyloid nucleation score (Sup35N fusion, yeast selection) (log enrichment); library NNK2; higher = more nucleation; inactive = no reads after selection
# label = met if amyloid nucleation score >= 0.4 else not met

## Task Confirm if amyloid nucleation score reported for the substance `AVFNGFKNNSLV` is 0.4 or above.
## Result not met

## Task Confirm if amyloid nucleation score reported for the substance `VMNVNSCGWVVRHNR` is 0.4 or above.
## Result met

## Task Confirm if amyloid nucleation score reported for the substance `TMMSLSGIVL` is 0.4 or above.
## Result not met

## Task Confirm if amyloid nucleation score reported for the substance `GNKMGCLFIGYCGFCTTVRP` is 0.4 or above.
## Result met

## Task Confirm if amyloid nucleation score reported for the substance `WVWRIRDCLIVSSTPTGMRV` is 0.4 or above.
## Result met

## Task Confirm if amyloid nucleation score reported for the substance `MMNTKFINWDKMLDIGYRAD` is 0.4 or above.
## Result met

## Task Confirm if amyloid nucleation score reported for the substance `STCVCYGSFCEASLWASLDG` is 0.4 or above.
## Result met

## Task Confirm if amyloid nucleation score reported for the substance `AYFKYCSSLRGSIRDNRADW` is 0.4 or above.
## Result not met

## Task Confirm if amyloid nucleation score reported for the substance `SFDWWASHRTIVY` is 0.4 or above.
## Result not met

## Task Confirm if amyloid nucleation score reported for the substance `DITYQHDGVIE` is 0.4 or above.
## Result not met

## Task Confirm if amyloid nucleation score reported for the substance `YMIFCLSIYEDDEALGPTER` is 0.4 or above.
## Result not met

## Task Confirm if amyloid nucleation score reported for the substance `TDYLGLWPWVSSSLGRVVTW` is 0.4 or above.
## Result met

## Task Confirm if amyloid nucleation score reported for the substance `SWSCMTRW` is 0.4 or above.
## Result met

## Task Confirm if amyloid nucleation score reported for the substance `LFFSATKTCSWSLKECAKR` is 0.4 or above.
## Result not met

## Task Confirm if amyloid nucleation score reported for the substance `NRLDNFRHQTEGKRRV` is 0.4 or above.
## Result not met

## Task Confirm if amyloid nucleation score reported for the substance `IYWLSYQTMVPIQAVYIHRC` is 0.4 or above.
## Result not met

## Task Confirm if amyloid nucleation score reported for the substance `NGTKTP` is 0.4 or above.
## Result met

## Task Confirm if amyloid nucleation score reported for the substance `LKEHYF` is 0.4 or above.
## Result not met

## Task Confirm if amyloid nucleation score reported for the substance `LLVAKYNLEYRMLSCSDNRQ` is 0.4 or above.
## Result met

## Task Confirm if amyloid nucleation score reported for the substance `MVYPRYVSDTKQSRLLAGRE` is 0.4 or above.
## Result met

## Task Confirm if amyloid nucleation score reported for the substance `KKLALKVVVSNCFKK` is 0.4 or above.
## Result met

## Task Confirm if amyloid nucleation score reported for the substance `VTDYYYLCKFKSRVP` is 0.4 or above.
## Result not met

## Task Confirm if amyloid nucleation score reported for the substance `CGVASSHFDGLLNR` is 0.4 or above.
## Result met

## Task Confirm if amyloid nucleation score reported for the substance `IATYIR` is 0.4 or above.
## Result not met
